- Test system: A549/ATCC NSCLC
- assayName: NCI-60 one-dose screen, 48 h (100 = growth as untreated, 0 = no growth, -100 = all killed)
- assaySetup: 10 µM unless noted
This is part of a sample that, as a whole, favours compounds with a hit. Of some 83,000 tested, about 20% had one in any assay.
What growth was measured for each of the following?
# unit: % | format: bare number

Endpoint output: growth of `CCOC(=O)N1CCN(S(=O)(=O)c2oc(-c3ccc(Cl)cc3)nc2C#N)CC1` . Value?
96.8

Entry to check: `CC1(C)CC[C@]2(C(=O)N3CCOCC3)CC[C@]3(C)C(=CC[C@@H]4[C@@]5(C)C/C(=C/c6ccncc6)C(=O)C(C)(C)[C@@H]5CC[C@]43C)[C@@H]2C1`
15.2

Item: `Oc1c(Cl)cc(Cl)c2ccc(Cn3cc(-c4cccc(C(F)(F)F)c4)nn3)nc12`
97.9

Same for `O=C(CCCCNC(=O)c1cc(=O)c(O)co1)Nc1ccccc1`
104

Next entry: `Cc1[nH]c(C(=O)Nc2ccc(C(N)=O)cc2NC(C)C)c(Cl)c1Cl`
85.5

Input `O=C(/C=C\c1ccco1)/C=C/c1ccco1`
102

Again, but for O=C(O)C1CN(c2cccc(Cl)c2)N(c2cccc(Cl)c2)C1=O (centres undefined)
105

Likewise for `N#Cc1nc2c(S(=O)(=O)c3ccccc3)c(N)n(Cc3cccnc3)c2nc1C#N` ?
90.1

Similarly, `CCOC(=O)C1CCN(c2ccc(N3C[C@@H](CNCc4ccc(C(=N)N)cc4)OC3=O)cc2)CC1` ?
104
